src = paper PMC9786614

Starred links: 1 amine or outer side, 2 acyl side, 3 side chain; linkers in the order of their positions; H or OH if unused. Positions of bridges follow the written chain, without caps; N, C: chain ends. Chains are numbered I, II in the order given. X1 = CC1(C)C(/C=C/C=C/C=C2/N(CCCCCC(=O)NCCN3C(=O)CC([*:1])C3=O)c3ccc(S(=O)(=O)O)cc3C2(C)C)=[N+](CCCCCC(=O)NCCN2C(=O)CC([*:2])C2=O)c2ccc(S(=O)(=O)[O-])cc21
Measured Endpoint: λEm in H2O/PBS (nm)

1. I: Ac-KNPPDIVGKTSQVTLYVFEKVPTRYC-NH2 / II: Ac-KNPPDIVGKTSQVTLYVFEKVPTRYC-NH2 (linker I:26-II:26 via X1) [Cy5-(P0_101–125)2]
671

---

Biological target: myelin protein zero (P0) (Rattus norvegicus, UniProt P06907)
Construct: RT4-D12 Schwannoma cells were selected for in vitro experiments based on their origin and their specific P0-expressing properties; endogenous in cells; host or cells: RT4-D12 Schwannoma cells
Sequence (P06907 30-248): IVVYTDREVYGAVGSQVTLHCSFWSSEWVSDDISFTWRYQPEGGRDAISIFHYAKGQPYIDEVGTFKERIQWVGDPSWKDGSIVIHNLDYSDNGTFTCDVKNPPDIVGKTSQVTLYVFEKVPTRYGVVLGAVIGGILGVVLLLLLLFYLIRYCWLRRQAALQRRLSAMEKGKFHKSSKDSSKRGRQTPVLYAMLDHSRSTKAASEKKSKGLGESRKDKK
Assay: Saturation binding by flow cytometry on P0-expressing Schwannoma cells
Conditions: saturation binding, flow cytometry, RT4-D12 Schwannoma cells, 0–2000 nM tracer in 0.1% BSA in PBS, 1 h at 4 °C, triplicate; One site—Total fit
Protocol: RT4-D12 Schwannoma cells were selected for in vitro experiments based on their origin and their specific P0-expressing properties. All chemicals were received from Actu-All Chemical (Oss, The Netherlands), Sigma Aldrich (St. Louis, MO, USA), Tokyo Chemical Industry (Tokyo, Japan), Biosolve BV (Valkenswaard, The Netherlands), VWR Chemicals (Solon, OH, USA) and used without further purification. […] Obtained images were analyzed using Leica Confocal Software (Leica Microsystems). […]
Starred links: 1 amine or outer side, 2 acyl side, 3 side chain; linkers in the order of their positions; H or OH if unused. Positions of bridges follow the written chain, without caps; N, C: chain ends. Chains are numbered I, II in the order given. X1 = CC1(C)C(/C=C/C=C/C=C2/N(CCCCCC(=O)NCCN3C(=O)CC([*:1])C3=O)c3ccc(S(=O)(=O)O)cc3C2(C)C)=[N+](CCCCCC(=O)NCCN2C(=O)CC([*:2])C2=O)c2ccc(S(=O)(=O)[O-])cc21
Measured Endpoint: Kd (nM)

1) I: Ac-KNPPDIVGKTSQVTLYVFEKVPTRYC-NH2 / II: Ac-KNPPDIVGKTSQVTLYVFEKVPTRYC-NH2 (linker I:26-II:26 via X1) [Cy5-(P0_101–125)2]
70.3
